Target: Phospholipase A and acyltransferase 4 (Homo sapiens, UniProt Q9UL19)
Experiment: Inhibition of full-length C-terminal FLAG-tagged human PLAAT4 expressed in HEK293T cell lysate preincubated for 30 mins followed by MB064 addition and measured after 20 mins by SDS-PAGE based ABPP analysis
pIC50: −log10 of the molar value.
Where pIC50 equals or exceeds 6, the correct label is met; where it does not, the label is not met.

Example results:
O=C(CCc1ccccc1)C(=O)NCCc1ccccc1 :: not met
O=C(/C=C/c1ccc(Cl)cc1)C(=O)NCCc1ccccc1 :: not met
COCCN(CCOC)C(=O)C(=O)CCc1ccc(Cl)cc1 :: not met
O=C(CCCc1ccccc1)C(=O)NCCc1ccccc1Cl :: not met
O=C(NCCc1ccccc1)C(=O)c1ccc(Cl)cc1 :: not met
COc1ccc(/C=C/C(=O)C(=O)NCCc2ccccc2)cc1 :: not met
O=C(CCCc1ccccc1)C(=O)NCCc1ccc(Oc2ccc(C(F)(F)F)nc2)cc1 :: met
O=C(CCc1ccc(C(F)(F)F)cc1)C(=O)NCCc1ccccc1 :: not met

Is it the case that CCN(CCc1ccccc1)C(=O)C(=O)CCc1ccc(Cl)cc1 has pIC50 reaching or exceeding 6?
not met

Is it the case that O=C(CCc1ccc(Cl)cc1)C(=O)N1CC[C@@H](c2ccccc2)C1 has pIC50 reaching or exceeding 6?
not met

Is it the case that O=C(CCc1ccccc1Cl)C(=O)NCCc1ccccc1 has pIC50 reaching or exceeding 6?
not met

----------
Target: Phospholipase A and acyltransferase 2 (Homo sapiens, UniProt Q9NWW9)
Sequence (Q9NWW9 whole entry): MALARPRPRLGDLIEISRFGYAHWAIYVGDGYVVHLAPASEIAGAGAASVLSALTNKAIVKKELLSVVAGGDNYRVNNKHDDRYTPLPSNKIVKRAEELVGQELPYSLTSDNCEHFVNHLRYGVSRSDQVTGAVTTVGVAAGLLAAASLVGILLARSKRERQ
Test: Inhibition of full-length C-terminal FLAG-tagged human PLAAT2 expressed in HEK293T cell lysate preincubated for 30 mins followed by MB064 addition and measured after 20 mins by SDS-PAGE based ABPP analysis
Hi! Could you tag entries with IC50 below 3 µM as true, and those at or above as false? Much appreciated.

Example results:
CCN(CCc1ccccc1)C(=O)C(=O)CCc1ccc(Cl)cc1 :: false
O=C(CCCc1ccccc1)C(=O)NCCc1ccccc1Cl :: false
O=C(CCc1ccccc1)C(=O)NCCc1ccccc1 :: false
COc1ccc(CCNC(=O)C(=O)CCCc2ccccc2)cc1OC :: false
COc1ccc(CCNC(=O)C(=O)CCCc2ccccc2)cc1 :: true
CN(CCc1ccccc1)C(=O)C(=O)CCc1ccc(Cl)cc1 :: false
CC(=O)C(=O)NCCc1ccccc1 :: false
O=C(CCc1ccc(Oc2ccccc2)cc1)C(=O)NCCc1ccccc1 :: false
O=C(CCc1ccc(C(F)(F)F)cc1)C(=O)NCCc1ccccc1 :: true
CCOC(=O)C(F)(F)C(O)CCc1ccccc1 (configuration not stated) :: false

A record lists O=C(CCc1cccc(Cl)c1)C(=O)NCCc1ccccc1 . Is its IC50 below 3 µM?
true

A record lists O=C(/C=C/c1cccc(-c2ccccc2)c1)C(=O)NCCc1ccccc1 . Is its IC50 below 3 µM?
true

----------
Task for the reader: assign each of the following compounds its reported IC50.
Biological target: Phospholipase A and acyltransferase 2 (Homo sapiens)
Assay: Inhibition of full-length C-terminal FLAG-tagged human PLAAT2 expressed in HEK293T cell lysate preincubated for 30 mins followed by MB064 addition and measured after 20 mins by SDS-PAGE based ABPP analysis

Worked cases, answers included:
O=C(CCCc1ccccc1)C(=O)NCCc1ccc(Cl)cc1Cl :: 1260 nM
O=C(CCc1ccccc1)[C@H](F)C(=O)NCc1ccccc1 :: > 10000 nM

Could you report IC50 for every entry in the following list?
1. O=C(CCCc1ccccc1)C(=O)NCCc1ccccc1
2. O=C(NCCc1ccccc1)C(O)CCc1ccc(Cl)cc1 (stereo not given)

1: 501 nM; 2: > 10000 nM

Look at this compound and give its reported IC50. O=C(CCCc1ccccc1)C(=O)NCCc1ccc(Oc2ccccc2)cc1
50.1 nM

----------
Biological target: Phospholipase A and acyltransferase 3 (Homo sapiens, UniProt P53816)
Assay: Inhibition of full-length C-terminal FLAG-tagged human PLAAT3 expressed in HEK293T cell lysate preincubated for 30 mins followed by MB064 addition and measured after 20 mins by SDS-PAGE based ABPP analysis
pIC50: −log10 of the molar value.
Task for the reader: assign each of the following compounds its reported pIC50.

O=C(NCc1ccccc1)C(F)(F)C(O)CCc1ccccc1 (stereo unspecified) :: < 5.00
O=C(CCc1ccccc1)C(F)(F)C(=O)NCc1ccccc1 :: < 5.00
O=C(CCc1ccccc1)[C@H](F)C(=O)NCc1ccccc1 :: < 5.00
CN(CCc1ccccc1)C(=O)C(=O)CCc1ccc(Cl)cc1 :: < 5.00
O=C(NCCc1ccccc1)C(=O)c1ccc(Cl)cc1 :: < 5.00
CC(=O)C(=O)NCCc1ccccc1 :: < 5.00
O=C(CCc1ccccc1)C(=O)NCCc1ccccc1 :: < 5.00
O=C(CCCc1ccccc1)C(=O)NCCc1ccc(Oc2ccc(C(F)(F)F)nc2)cc1 :: 6.80

Could you report pIC50 for every entry in the following list?
1. CN1CCN(C(=O)C(=O)CCc2ccc(Cl)cc2)CC1
2. O=C(CCCc1ccccc1)C(=O)NCCc1ccc(Oc2ccccc2)cc1

["< 5.00", 6.60]

----------
Biological target: Phospholipase A and acyltransferase 3 (Homo sapiens)
Assay: Inhibition of full-length C-terminal FLAG-tagged human PLAAT3 expressed in HEK293T cell lysate preincubated for 30 mins followed by MB064 addition and measured after 20 mins by SDS-PAGE based ABPP analysis
pIC50: −log10 of the molar value.
Where pIC50 equals or exceeds 6, the correct label is met; where it does not, the label is not met.

Example results:
CCNC(=O)C(=O)CCc1ccc(Cl)cc1 :: not met
O=C(NCCc1ccccc1)C(O)CCc1ccc(Cl)cc1 (configuration not stated) :: not met

Is it the case that O=C(CCc1ccc(Oc2ccccc2)cc1)C(=O)NCCc1ccccc1 has pIC50 reaching or exceeding 6?
not met

Is it the case that COc1ccc(/C=C/C(=O)C(=O)NCCc2ccccc2)cc1 has pIC50 reaching or exceeding 6?
not met

Is it the case that O=C(CCc1ccc(Cl)cc1)C(=O)N1CCCC[C@H]1c1ccccc1 has pIC50 reaching or exceeding 6?
not met

Is it the case that O=C(CCCc1ccccc1)C(=O)NCCc1cccc(Cl)c1 has pIC50 reaching or exceeding 6?
met

----------
Task for the reader: assign each of the following compounds its reported pIC50.
Target: UniProt:Q9UL19
Sequence (Q9UL19 whole entry): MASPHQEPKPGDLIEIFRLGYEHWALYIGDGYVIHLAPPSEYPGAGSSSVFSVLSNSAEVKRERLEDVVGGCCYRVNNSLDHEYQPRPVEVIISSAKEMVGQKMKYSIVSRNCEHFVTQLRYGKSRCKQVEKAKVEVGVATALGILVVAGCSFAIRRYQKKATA
Experiment: Inhibition of full-length C-terminal FLAG-tagged human PLAAT4 expressed in HEK293T cell lysate preincubated for 30 mins followed by MB064 addition and measured after 20 mins by SDS-PAGE based ABPP analysis
One number for each entry, as −log10 of the molar value.

Worked cases, answers included:
O=C(CCCc1ccccc1)C(=O)NCCc1ccc(Cl)cc1Cl :: 6.10
O=C(CCc1ccc(Cl)c(Cl)c1)C(=O)NCCc1ccccc1 :: 6.00
O=C(CCCc1ccccc1)C(=O)NCCc1cccc(Cl)c1 :: 6.00

Could you report pIC50 for every entry in the following list?
1. O=C(CCCc1ccccc1)C(=O)NCCc1ccc(Br)cc1
2. COc1ccc(CCC(=O)C(=O)NCCc2ccccc2)cc1
3. O=C(CCc1ccc(Oc2ccccc2)cc1)C(=O)NCCc1ccccc1
4. O=C(CCCc1ccccc1)C(=O)NCCc1ccc(Oc2ccnc(Cl)n2)cc1

1. 6.70
2. 5.90
3. 5.90
4. 6.70

Could you report pIC50 for every entry in the following list?
1. COc1ccc(CCNC(=O)C(=O)CCCc2ccccc2)cc1OC
2. O=C(CCc1ccc(Cl)cc1)C(=O)NCc1ccccc1
3. O=C(CCCCc1ccccc1)C(=O)NCCc1ccccc1

5.20
5.60
5.80

----------
Molecular target: Phospholipase A and acyltransferase 3 (Homo sapiens, UniProt P53816)
Sequence (P53816 whole entry): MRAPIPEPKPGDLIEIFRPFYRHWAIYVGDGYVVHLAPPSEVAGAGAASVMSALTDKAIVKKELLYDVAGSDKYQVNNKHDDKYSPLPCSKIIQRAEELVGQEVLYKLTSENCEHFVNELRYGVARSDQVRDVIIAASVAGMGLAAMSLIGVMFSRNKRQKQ
Assay: Inhibition of full-length C-terminal FLAG-tagged human PLAAT3 expressed in HEK293T cell lysate preincubated for 30 mins followed by MB064 addition and measured after 20 mins by SDS-PAGE based ABPP analysis
value_kind: IC50 (nM)
Give bare numbers, in nM.

Worked cases, answers included:
O=C(/C=C/c1ccc(Br)cc1)C(=O)NCCc1ccccc1 :: 2510
O=C(CCc1ccc(Cl)cc1)C(=O)NCc1ccccc1 :: 1580
O=C(CCc1ccc(Cl)cc1)C(=O)NCCCCc1ccccc1 :: 1000

Look at this molecule and give its reported IC50. O=C(/C=C/c1ccc(Cl)cc1)C(=O)NCCc1ccccc1
2510
